Test system: K4 kissing-loop RNA reporter;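 further: bound reporter read as fluorescence of individual clusters on recovered sequencing chips by microscopy, with normalized cluster intensities fitted with a binding model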
Assay: apparent KD of K4 kissing-loop reporter; higher = weaker reporter binding
Conditions: Eterna round: R107; input ligand: FMN 200 uM
// n strictly below 200 nM in apparent KD of K4 kissing-loop reporter; y otherwise

>>> cat("GGUUUAUAGGAGGAUACCAGUACGGAUAAAGUACAUUAAUAGUAGAGUGAUGUUCUAAAGUACCCUUGGCAGCUUAGAUUAAGUU [ExTheophylB.I]")
"n"

Query: Check the entry GAUUGUGAUGGAAACAUCGCAAUCUCUGAAGGAGCGCGUGAAAACGCAGGUAGGUCGCAGAACGACAAAGACAGUGAUGUUGUCA [Ex Arginine A K4 5] : does apparent KD of K4 kissing-loop reporter equal or exceed 200 nM?
Result: y

Query: Is apparent KD of K4 kissing-loop reporter at least 200 nM? Consider UGACACUCAACGGCCGCCACUACCGUCGCCGAAUUCCGCAGUGAUGUUGCGAUCCUCCGAUUGUCUAGGACCGGGUUGUUUGGGC [theeternabot_exclusion_KL_Trp_B_43]
Result: n

Query: Is apparent KD of K4 kissing-loop reporter at least 200 nM? Consider AAACUUGCAGUGAUGUUGCAAGUAGGUGAUACCAGCAUCGAAAGAUGCCCUUGGCAGCACCAACACUGUAAGUAAGUAUCACCAA [(H1)-(H2)-(T1)-(T2)-(H)'-(T)'_Design2]
Result: n

Query: Please tell me: is the sequence CGAGCGCGUGCGGCCGCCACUACUAUAAGUCGUCCAAGUUAGUGAUGUUGACUGAACGUCGGAAAUAGGACCGGGCAUAGUUUUA [theeternabot_sameState_KL_Trp_B_40] at or over 200 nM in terms of apparent KD of K4 kissing-loop reporter?
Result: y
